Items are presented alongside their recorded DC50.
biological target: GSPT1 (Homo sapiens, UniProt P15170+Q96SW2); construct: host or cells: HEK293 LgBiT / GSPT1 HiBiT CRISPR knock-in; assay: GSPT1 HiBiT degradation assay; assay type: cell-based; conditions: HEK293 LgBiT GSPT1 HiBiT cells, 6 hours
Sequence (P15170 whole entry): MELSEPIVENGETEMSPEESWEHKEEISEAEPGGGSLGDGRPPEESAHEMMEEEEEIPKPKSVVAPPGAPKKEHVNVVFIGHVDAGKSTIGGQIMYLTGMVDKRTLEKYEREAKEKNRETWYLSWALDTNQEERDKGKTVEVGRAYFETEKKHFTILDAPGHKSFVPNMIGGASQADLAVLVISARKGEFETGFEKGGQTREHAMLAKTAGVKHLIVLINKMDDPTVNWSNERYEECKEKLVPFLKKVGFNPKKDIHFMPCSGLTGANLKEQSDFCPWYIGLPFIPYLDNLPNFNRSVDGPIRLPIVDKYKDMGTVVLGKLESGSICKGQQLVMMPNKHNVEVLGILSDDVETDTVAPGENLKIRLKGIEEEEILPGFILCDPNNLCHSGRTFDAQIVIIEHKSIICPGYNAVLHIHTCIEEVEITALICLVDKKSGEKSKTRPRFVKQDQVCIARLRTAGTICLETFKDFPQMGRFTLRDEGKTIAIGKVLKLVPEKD
Sequence (Q96SW2 whole entry): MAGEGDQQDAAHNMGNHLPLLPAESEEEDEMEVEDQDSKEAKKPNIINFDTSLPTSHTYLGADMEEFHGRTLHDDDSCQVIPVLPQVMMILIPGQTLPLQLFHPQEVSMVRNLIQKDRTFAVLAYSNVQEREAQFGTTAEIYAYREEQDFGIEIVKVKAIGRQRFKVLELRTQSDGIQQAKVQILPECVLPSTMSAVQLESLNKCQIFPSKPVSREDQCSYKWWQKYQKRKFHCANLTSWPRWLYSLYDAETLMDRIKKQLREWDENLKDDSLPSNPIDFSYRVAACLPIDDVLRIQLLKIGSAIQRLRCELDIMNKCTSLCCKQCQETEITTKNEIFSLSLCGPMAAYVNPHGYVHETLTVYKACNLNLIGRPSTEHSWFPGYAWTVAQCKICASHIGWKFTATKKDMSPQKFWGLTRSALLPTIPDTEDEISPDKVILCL
Sequence (Q16531 whole entry partner): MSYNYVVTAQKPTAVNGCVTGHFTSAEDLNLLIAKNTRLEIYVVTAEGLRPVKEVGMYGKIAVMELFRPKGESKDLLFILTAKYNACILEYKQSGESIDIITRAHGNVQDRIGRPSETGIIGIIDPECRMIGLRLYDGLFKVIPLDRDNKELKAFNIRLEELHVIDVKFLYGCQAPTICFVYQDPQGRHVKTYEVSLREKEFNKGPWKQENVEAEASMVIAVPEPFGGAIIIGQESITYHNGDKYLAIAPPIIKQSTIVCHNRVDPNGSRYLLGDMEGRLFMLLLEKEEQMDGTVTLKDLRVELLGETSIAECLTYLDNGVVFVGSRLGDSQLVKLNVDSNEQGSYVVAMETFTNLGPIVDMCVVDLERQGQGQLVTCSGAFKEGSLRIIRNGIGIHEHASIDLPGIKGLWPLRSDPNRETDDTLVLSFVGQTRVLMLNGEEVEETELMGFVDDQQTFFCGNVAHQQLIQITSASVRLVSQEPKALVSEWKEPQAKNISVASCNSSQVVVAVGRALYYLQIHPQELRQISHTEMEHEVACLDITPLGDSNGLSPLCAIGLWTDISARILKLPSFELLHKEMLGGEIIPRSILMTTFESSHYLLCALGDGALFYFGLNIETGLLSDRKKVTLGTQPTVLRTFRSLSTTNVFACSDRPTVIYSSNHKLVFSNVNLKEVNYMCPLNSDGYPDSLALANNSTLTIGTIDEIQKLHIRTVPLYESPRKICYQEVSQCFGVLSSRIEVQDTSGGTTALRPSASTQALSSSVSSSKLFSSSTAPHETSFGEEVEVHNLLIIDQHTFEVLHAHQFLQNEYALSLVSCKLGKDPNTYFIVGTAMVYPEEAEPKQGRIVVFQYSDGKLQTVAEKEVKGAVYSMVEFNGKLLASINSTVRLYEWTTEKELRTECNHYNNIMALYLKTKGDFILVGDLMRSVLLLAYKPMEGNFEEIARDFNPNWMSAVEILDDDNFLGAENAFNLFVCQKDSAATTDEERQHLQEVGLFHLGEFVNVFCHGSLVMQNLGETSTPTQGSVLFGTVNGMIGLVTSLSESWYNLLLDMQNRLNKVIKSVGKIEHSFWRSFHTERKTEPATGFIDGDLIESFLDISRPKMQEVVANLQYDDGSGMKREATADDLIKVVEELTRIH

The cases that follow already have their DC50 on record.
C=C(COc1ccc(Cl)cc1NC(=O)NCc1ccc2c(c1)CN(C1CCC(=O)NC1=O)C2=O)C(=O)N[C@@H]1CN(c2nc(Nc3cn(C)nc3OC)c3ncn(C)c3n2)C[C@H]1F (stereo partly drawn) [Compound I-47] ... 50 to 500 nM
C=C(COc1cc(NC(=O)NCc2ccc3c(c2)CN(C2CCC(=O)NC2=O)C3=O)cc(F)c1F)C(=O)N1CCN(c2nc(OC[C@@H]3CCCN3C)nc3c2CCN(c2cccc4cccc(Cl)c24)C3)C[C@@H]1CC#N (stereo partly drawn) [Compound I-75] ... > 2500 nM

*Q* Dear colleague, I am looking for the recorded DC50 of the following compound: C=C(COc1cc(C(F)(F)C(=O)NCc2ccc3c(c2)CN(C2CCC(=O)NC2=O)C3=O)ccc1Cl)C(=O)N1CCN(c2nc(OC[C@@H]3CCCN3C)nc3c2CCN(c2cccc4cccc(Cl)c24)C3)C[C@@H]1CC#N (stereo partly drawn) [Compound I-81]
*A* 50 to 500 nM

*Q* For C=C(COC(=O)c1c(C)csc1NC(=O)NCc1ccc2c(c1)CN(C1CCC(=O)NC1=O)C2=O)C(=O)N1CCN(c2nc(OC[C@@H]3CCCN3C)nc3c2CCN(c2cccc4cccc(Cl)c24)C3)C[C@@H]1CC#N (stereo partly drawn) [Compound I-72] , what is its reported DC50?
*A* > 2500 nM

*Q* Suppose we examine the compound C=C(CN(C(=O)NCc1ccc2c(c1)CN(C1CCC(=O)NC1=O)C2=O)c1ccc(C)c(Cl)c1)C(=O)Nc1cc(Nc2ncc(-c3cn(C)c4ccccc34)cn2)c(OC)cc1N(C)CCN(C)C (stereo not drawn) [Compound I-42] ; what DC50 value has been reported?
*A* > 2500 nM

*Q* Look at this compound and give its reported DC50. C=C(COc1cc(Cl)cc(NC(=O)NCc2ccc3c(c2)CN(C2CCC(=O)NC2=O)C3=O)c1)C(=O)N1CCC[C@@H](n2nc(-c3ccc(Oc4ccccc4)cc3)c3c(N)ncnc32)C1 (stereo partly drawn) [Compound I-114]
*A* 500 to 2500 nM

*Q* Recorded DC50 of C=C(COc1ccc(Cl)cc1NC(=O)NCc1ccc2c(c1)CN(C1CCC(=O)NC1=O)C2=O)C(=O)N1CC2(CC(n3nc(-c4ccc5c(cnn5C)c4)c(-c4c(Cl)c(C)cc5[nH]ncc45)c3C)C2)C1 (stereo not drawn) [Compound I-76] , please.
*A* 50 to 500 nM

*Q* GET /values?readout=DC50&item= C=C(COc1cc(Cl)cc(NC(=O)NCc2ccc3c(c2)CN(C2CCC(=O)NC2=O)C3=O)c1)C(=O)Nc1cc(Nc2nccc(-c3cn(C)c4ccccc34)n2)c(OC)cc1N(C)CCN(C)C (stereo not drawn) [Compound I-59]
*A* 50 to 500 nM

*Q* Name the recorded DC50 for C=C(COc1cc(Cl)c(OC)cc1NC(=O)NCc1ccc2c(c1)CN(C1CCC(=O)NC1=O)C2=O)C(=O)N1CC2(CC(n3nc(-c4ccc5c(cnn5C)c4)c(-c4c(Cl)c(C)cc5[nH]ncc45)c3C)C2)C1 (stereo not drawn) [Compound I-66] .
*A* 50 to 500 nM
